Assign inhibition at 10 µM to each entry below.
- assay target: panel of 203 kinases (Homo sapiens, UniProt Q96D53)
- Construct: purchased DiscoverX (KINOMEscan)
- Sequence (Q96D53 whole entry): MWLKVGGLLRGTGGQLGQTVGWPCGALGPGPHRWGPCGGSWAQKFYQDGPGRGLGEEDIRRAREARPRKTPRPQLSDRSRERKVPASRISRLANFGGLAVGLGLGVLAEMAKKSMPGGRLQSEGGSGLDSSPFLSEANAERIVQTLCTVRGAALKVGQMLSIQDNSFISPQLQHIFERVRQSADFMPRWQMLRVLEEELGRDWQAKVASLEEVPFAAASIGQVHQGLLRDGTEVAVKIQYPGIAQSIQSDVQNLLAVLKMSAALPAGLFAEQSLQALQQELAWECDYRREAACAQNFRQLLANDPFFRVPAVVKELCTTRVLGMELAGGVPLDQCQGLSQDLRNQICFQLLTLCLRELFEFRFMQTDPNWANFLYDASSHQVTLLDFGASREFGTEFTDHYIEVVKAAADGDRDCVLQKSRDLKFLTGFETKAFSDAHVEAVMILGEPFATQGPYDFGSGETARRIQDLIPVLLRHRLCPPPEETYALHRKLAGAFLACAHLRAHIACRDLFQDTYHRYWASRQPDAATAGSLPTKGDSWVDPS
- method notes: KINOMEscan competitive binding, whole panel
- experimental context: 10 µM, n=1; kinase ADCK4; read-out: Percent inhibition ADCK4
One number for each entry, in %.

item smiles: Nc1ncc2c(-c3ccncc3)c[nH]c2n1
uom: %
endpoint result: 0
//
item smiles: Clc1ccc(Nc2ncc(-c3ccccc3)s2)cc1
uom: %
endpoint result: 0
//
item smiles: COc1cc(Nc2nccc(-c3sc(N)nc3-c3cccc(NC(=O)c4c(F)cccc4F)c3)n2)cc(OC)c1OC
uom: %
endpoint result: 100
//
item smiles: COc1ccc(Nc2nccc(-c3cnn4ncccc34)n2)cc1
uom: %
endpoint result: 94.5

Below is a list of compounds. For each, state its recorded inhibition at 10 µM.
1. c1ccc(COc2cccc(-c3ccnc4[nH]ccc34)c2)cc1
2. Cc1ccc(O)cc1N(C)c1ccnc(Nc2cccc(S(N)(=O)=O)c2)n1
3. Fc1cccc(COc2ccc(Nc3ncnc4c3CN(CCN3CCOCC3)CC4)cc2Cl)c1
4. Cc1ccc(O)cc1Nc1ccnc(Nc2cccc(C(N)=O)c2)n1
5. CN1CCN(c2ccc(Nc3nccc(-c4cnn5ncccc45)n3)cc2C#N)CC1
6. C[C@@H](Oc1cc(-c2cnc3ccccn23)sc1C(N)=O)c1ccccc1Cl

Key:
0
100
0
100
98.6
0
